Each recorded value in this set is attributed to patent US11414404B2.

target: P-gp (MDR1) (Homo sapiens (Human), UniProt P08183); test: MDR1 LLC-PK1 permeability assay: efflux ratio; conditions: pig, LLC-PK1
Sequence (P08183 whole entry, species assumed): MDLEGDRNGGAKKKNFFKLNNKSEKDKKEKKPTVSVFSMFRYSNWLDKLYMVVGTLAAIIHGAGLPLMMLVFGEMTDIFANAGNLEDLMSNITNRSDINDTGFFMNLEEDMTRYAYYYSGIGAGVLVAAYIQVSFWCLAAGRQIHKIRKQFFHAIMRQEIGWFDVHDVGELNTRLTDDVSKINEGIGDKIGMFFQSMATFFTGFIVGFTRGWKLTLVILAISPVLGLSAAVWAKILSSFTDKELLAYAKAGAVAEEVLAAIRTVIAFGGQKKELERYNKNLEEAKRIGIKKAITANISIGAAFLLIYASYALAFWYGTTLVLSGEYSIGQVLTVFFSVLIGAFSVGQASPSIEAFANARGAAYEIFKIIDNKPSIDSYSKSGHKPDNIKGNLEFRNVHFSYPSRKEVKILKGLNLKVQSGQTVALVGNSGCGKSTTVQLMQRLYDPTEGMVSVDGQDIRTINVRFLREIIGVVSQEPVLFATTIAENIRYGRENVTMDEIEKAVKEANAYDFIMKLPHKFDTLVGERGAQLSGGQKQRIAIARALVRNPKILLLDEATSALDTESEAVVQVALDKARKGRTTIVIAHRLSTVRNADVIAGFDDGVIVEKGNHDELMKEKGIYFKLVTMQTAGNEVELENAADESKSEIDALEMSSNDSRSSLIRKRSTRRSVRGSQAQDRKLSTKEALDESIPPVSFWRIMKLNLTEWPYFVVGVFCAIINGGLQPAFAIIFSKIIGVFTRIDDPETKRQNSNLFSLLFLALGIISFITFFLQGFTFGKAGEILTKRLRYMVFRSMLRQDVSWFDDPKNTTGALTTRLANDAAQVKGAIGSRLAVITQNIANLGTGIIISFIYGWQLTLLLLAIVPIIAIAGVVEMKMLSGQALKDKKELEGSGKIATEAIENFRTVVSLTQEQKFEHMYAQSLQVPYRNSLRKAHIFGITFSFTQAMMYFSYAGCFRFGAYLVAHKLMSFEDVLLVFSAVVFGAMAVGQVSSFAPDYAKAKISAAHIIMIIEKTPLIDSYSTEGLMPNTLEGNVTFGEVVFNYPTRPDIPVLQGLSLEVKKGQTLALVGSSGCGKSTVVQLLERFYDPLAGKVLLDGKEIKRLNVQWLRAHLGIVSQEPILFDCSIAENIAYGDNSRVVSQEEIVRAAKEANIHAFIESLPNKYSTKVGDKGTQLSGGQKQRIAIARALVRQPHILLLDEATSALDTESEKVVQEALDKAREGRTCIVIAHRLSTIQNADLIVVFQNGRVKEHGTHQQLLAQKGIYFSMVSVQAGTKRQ
Structures can show the parent of a compound that is named as a salt.
property name: efflux ratio at 2 h, 1 µM

- CCCS(=O)(=O)Nc1ccc(F)c(Nc2ccc3ncn(CC)c(=O)c3c2C)c1Cl [Example 37, trifluoroacetate]: 0.94
- [2H]C([2H])([2H])n1cnc2ccc(Nc3c(F)ccc(NS(=O)(=O)CCC)c3Cl)c(C)c2c1=O [Example 24]: 1.59
- CCCS(=O)(=O)Nc1cc(F)cc(Oc2ccc3ncn(C)c(=O)c3c2C)c1Cl [Example 74]: 1.13
